Form field: MFI at 50 nM (one value per entry).
- Assayed System: PD-1 (Homo sapiens (Human)) (UniProt Q15116)
- Sequence (Q15116 21-288 limits assumed): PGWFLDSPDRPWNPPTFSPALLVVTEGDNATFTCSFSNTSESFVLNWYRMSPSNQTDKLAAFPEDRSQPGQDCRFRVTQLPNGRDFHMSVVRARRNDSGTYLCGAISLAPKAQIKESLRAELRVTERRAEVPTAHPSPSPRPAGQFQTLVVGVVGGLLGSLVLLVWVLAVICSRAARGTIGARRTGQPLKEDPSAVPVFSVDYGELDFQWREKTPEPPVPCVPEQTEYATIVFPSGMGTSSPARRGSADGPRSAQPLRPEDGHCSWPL
- Test Name: flow cytometry, Jurkat/PD-1 cells
// return a plain number; no unit text

{"Binder": "variant PD-L2 IgV-Fc H15Q, Q72H, V89D (Fc fusion, not shown: a dimerising Fc or GST; small tags and cut ends) LFTVTVPKELYIIEQGSNVTLECNFDTGSHVNLGAITASLQKVENDTSPHRERATLLEEQLPLGKASFHIPHVQVRDEGQYQCIIIYGDAWDYKYLTLK", "MFI at 50 nM": 12600}
{"Binder": "variant PD-L2 IgV-Fc S67L, I85F (Fc fusion, not shown: a dimerising Fc or GST; small tags and cut ends) LFTVTVPKELYIIEHGSNVTLECNFDTGSHVNLGAITASLQKVENDTSPHRERATLLEEQLPLGKALFHIPQVQVRDEGQYQCIFIYGVAWDYKYLTLK", "MFI at 50 nM": 529}
{"Binder": "variant PD-L2 IgV-Fc H15Q, V31M, S67L, Q82R, V89D (Fc fusion, not shown: a dimerising Fc or GST; small tags and cut ends) FTVTVPKELYIIEQGSNVTLECNFDTGSHMNLGAITASLQKVENDTSPHRERATLLEEQLPLGKALFHIPQVQVRDEGQYRCIIIYGDAWDYKYLTLK", "MFI at 50 nM": 67400}

# evaluate next
Reported MFI at 50 nM for variant PD-L2 IgV-Fc E44D, S67L, Q72H, Q82R, V89D (Fc fusion, not shown: a dimerising Fc or GST; small tags and cut ends) FTVTVPKELYIIEHGSNVTLECNFDTGSHVNLGAITASLQKVDNDTSPHRERATLLEEQLPLGKALFHIPHVQVRDEGQYRCIIIYGDAWDYKYLTLK : what is it?
51500
